Where do the numbers come from? From patent US20240376097A1.

Recorded IC50 by entry
- target entity: recombinant human Bcl-2-G101V protein (Homo sapiens (Human), UniProt P10415, G101V)
- test protocol: Bcl-2-G101V TR-FRET Assay
- Format: binding
- measurement conditions: Bcl-2 G101V mutant, TR-FRET; read-out: Biochemical assay (IC50, nM) Bcl-2 G101V
- Protocol: Biological Example: Bcl-2-G101V TR-FRET Assay […]. The TR-FRET signals (ex337 nm, em490 nm/520 nm) were read on BMG PHERAstar FSX instrument. The inhibition percentage of Bcl-2-G101V interaction with its ligand in presence of increasing concentrations of compounds was calculated based on the ratio of fluorescence at 490 nm to that at 520 nm. The IC50 for each compound was derived from fitting the data to the four-parameter logistic equation by Graphpad Prism software or Dotmatics.
parameter measured: IC50 (nM)

| compound | endpoint result |
| --- | --- |
| COc1ccc(CN2CCN(C3CC4(CCN(c5ccc(C(=O)NS(=O)(=O)c6ccc(NC[C@H]7CC[C@](C)(O)CC7)c([N+](=O)[O-])c6)c(Oc6cnc7[nH]cc(F)c7c6)c5)CC4)C3)[C@H](c3ccccc3C(C)C)C2)cn1 | 0.17 |
| COc1cc(CN2CCN(C3CC4(CCN(c5ccc(C(=O)NS(=O)(=O)c6ccc(NC[C@H]7CC[C@](C)(O)CC7)c([N+](=O)[O-])c6)c(Oc6cnc7[nH]ccc7c6)c5)CC4)C3)C(c3ccccc3C(C)C)C2)ccc1Cl (stereo partly shown) | 1.9 |
| CC(C)c1ccccc1[C@@H]1CN(Cc2ccc3c(c2)OCC3)CCN1C1CC2(C1)CN(c1ccc(C(=O)NS(=O)(=O)c3ccc(NC[C@H]4CC[C@](C)(O)CC4)c([N+](=O)[O-])c3)c(Oc3cnc4[nH]ccc4c3)c1)C2 | 0.45 |
| COc1cc(CN2CCN(C3CC4(CCN(c5ccc(C(=O)NS(=O)(=O)c6ccc(NC[C@H]7CC[C@](C)(O)CC7)c([N+](=O)[O-])c6)c(Oc6cnc7[nH]ccc7c6)c5)CC4)C3)[C@H](c3ccccc3C(C)C)C2)ccc1F [Example 121a] | 0.4 |
